- System tested: 5-HT re-uptake (Rattus norvegicus, UniProt P31652)
- Construct: synaptosomes are freshly isolated from rat brain areas; from tissue; host or cells: rat brain synaptosomes (P2 fraction), medulla + pons region, male rats
- Sequence (P31652 whole entry): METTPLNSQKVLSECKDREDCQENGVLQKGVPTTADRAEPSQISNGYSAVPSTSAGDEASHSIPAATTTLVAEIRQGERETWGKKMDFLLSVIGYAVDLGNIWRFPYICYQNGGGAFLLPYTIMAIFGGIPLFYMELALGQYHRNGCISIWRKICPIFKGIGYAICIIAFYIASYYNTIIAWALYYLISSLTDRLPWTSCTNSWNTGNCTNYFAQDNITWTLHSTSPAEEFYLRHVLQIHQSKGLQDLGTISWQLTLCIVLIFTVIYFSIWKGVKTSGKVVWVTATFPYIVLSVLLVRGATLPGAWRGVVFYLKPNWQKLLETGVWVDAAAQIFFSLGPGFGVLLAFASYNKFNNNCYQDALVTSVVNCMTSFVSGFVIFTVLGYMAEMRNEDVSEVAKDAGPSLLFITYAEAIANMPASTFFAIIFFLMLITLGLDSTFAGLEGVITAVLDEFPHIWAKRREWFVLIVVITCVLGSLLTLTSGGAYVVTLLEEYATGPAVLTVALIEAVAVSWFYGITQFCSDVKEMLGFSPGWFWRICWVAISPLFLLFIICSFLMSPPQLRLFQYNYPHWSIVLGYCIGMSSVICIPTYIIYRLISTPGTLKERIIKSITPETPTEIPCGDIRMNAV
- Assay explanation: Inhibition of 5-HT re-uptake in rat brain synaptosomes (P2 fraction, medulla + pons)
- Type: biochemical
- Measurement setup: 10 μmol/l
Counter-ions that a name gives are not always drawn.
Bucketed by reported inhibition at 10 µM, buckets being interval 1 = under 70%, interval 2 = from 70% up to 80%, interval 3 = 80% and over

compound="CN(C)CC1=C(c2cccnc2)CCC1.Cl [Example 28, hydrochloride]" answer_label="interval 3"
compound="CN(C)CC1CCCCCC=C1c1cccnc1 (centres unmarked) [Example 33, hydrochloride]" answer_label="interval 2"
compound="CN(C)CC1CCCCCC=C1c1ccc(Cl)nc1 (centres unmarked) [Example 71, hydrochloride]" answer_label="interval 2"
compound="COc1cncc([C@H]2CCCCCC[C@H]2CN(C)C)c1 (relative stereo) [Example 72, hydrochloride]" answer_label="interval 1"

Sort into band: CN(C)CC1=C(c2cccnc2)CCCCC1.Cl [Example 23, hydrochloride]
interval 3

Record CN(C)CC1=C(c2ccncc2)CCCCC1 [Example 38, hydrochloride] — which class?
interval 2

# classify by inhibition at 10 µM band: CN(C)C[C@@H]1CCCCC[C@H]1c1cccnc1 (relative stereo) [Example 27, hydrochloride]
interval 3

State the band of COc1cncc(C2=C(CN(C)C)CCCC2)c1 [Example 54, hydrochloride]
interval 3

Lab note: which band did CN(C)CC1=C(c2ccc(Cl)nc2)CCCC1 [Example 49, hydrochloride] land in?
interval 1

###

- System tested: NA re-uptake (Rattus norvegicus, UniProt Q63380)
- Construct: synaptosomes are freshly isolated from rat brain areas; from tissue; host or cells: rat brain synaptosomes (P2 fraction), hypothalamus
- Sequence (Q63380 1-617): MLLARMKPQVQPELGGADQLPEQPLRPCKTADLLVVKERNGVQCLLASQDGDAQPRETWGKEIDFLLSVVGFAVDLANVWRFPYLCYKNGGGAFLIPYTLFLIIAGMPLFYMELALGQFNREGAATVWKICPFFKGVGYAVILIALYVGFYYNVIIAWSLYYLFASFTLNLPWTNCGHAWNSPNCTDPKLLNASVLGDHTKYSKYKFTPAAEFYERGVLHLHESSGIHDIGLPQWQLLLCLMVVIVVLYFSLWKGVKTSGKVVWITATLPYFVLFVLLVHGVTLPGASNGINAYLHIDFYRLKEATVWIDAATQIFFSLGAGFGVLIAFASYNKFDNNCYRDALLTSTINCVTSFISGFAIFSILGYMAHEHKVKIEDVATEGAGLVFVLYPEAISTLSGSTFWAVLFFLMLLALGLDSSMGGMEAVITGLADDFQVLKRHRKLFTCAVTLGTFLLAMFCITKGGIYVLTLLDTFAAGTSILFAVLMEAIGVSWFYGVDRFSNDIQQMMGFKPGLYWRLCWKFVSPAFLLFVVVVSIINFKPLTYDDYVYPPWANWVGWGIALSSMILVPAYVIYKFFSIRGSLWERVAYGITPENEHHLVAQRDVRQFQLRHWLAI
- Assay explanation: Inhibition of NA re-uptake in rat brain synaptosomes (P2 fraction, hypothalamus)
- Format: biochemical
- Measurement setup: 10 μmol/l
- From the text: a) Investigations of the Inhibition of the Re-uptake of 5-HT and NA In order to be able to carry out these in vitro studies, synaptosomes are freshly isolated from rat brain areas. […] These vesicular particles are isolated from the hypothalamus for the NA re-uptake and from the medulla +pons region of male rat brains for the 5-HT re-uptake. The IC50 values were obtained with the aid of the “Figure P” computer program (version 6.0, Biosoft, Cambridge, England). […]
Where a name gives a salt, the structure may show the parent alone.
Parameter: inhibition at 10 µM (%)
Field: numeric (%). Do not append units.

These recorded examples may help you get a feel for the data.
compound="CN(C)CC1=C(c2ccncc2)CCCCC1 [Example 38, hydrochloride]" parameter="inhibition at 10 µM" number=73
compound="CN(C)CC1CCCCCC=C1c1cccnc1 (stereo not drawn) [Example 33, hydrochloride]" parameter="inhibition at 10 µM" number=50
compound="COc1cncc(C2CCCCCC2CN(C)C)c1 (stereo not drawn) [Example 60, hydrochloride]" parameter="inhibition at 10 µM" number=30
compound="CN(C)CC1CCCCCC1(Cl)c1ccc(Cl)nc1 (stereo not drawn) [Example 13, hydrochloride]" parameter="inhibition at 10 µM" number=75
compound="CN(C)CC1=C(c2cccnc2)CCC1.Cl [Example 28, hydrochloride]" parameter="inhibition at 10 µM" number=29
compound="CN(C)CC1CCC=C1c1cccnc1 (stereo not drawn) [Example 29, hydrochloride]" parameter="inhibition at 10 µM" number=64
compound="CN(C)CC1=C(c2cccnc2)CCCCCC1.Cl [Example 32, hydrochloride]" parameter="inhibition at 10 µM" number=55
compound="CN(C)CC1CCCC1c1cccnc1.Cl (stereo not drawn) [Example 31, hydrochloride]" parameter="inhibition at 10 µM" number=8

Please turn your attention to the following entry.
The compound CN(C)C[C@@H]1CCCCC[C@@H]1c1cccnc1 (relative stereo) [Example 26, hydrochloride] showed inhibition at 10 µM equal to 28

Entry source: patent US7384961B2
